Listed here are compounds together with their documented SURFACE TENSION (dynes/cm) 500 ppm.
# protocol-description: Surface tension of the aqueous solution, Du Nouy tensiometer
# Format: physicochemical
# details: 500 ppm in water
value-kind: SURFACE TENSION (dynes/cm) 500 ppm

O=C(CC(C(=O)OCCC(F)(F)C(F)(F)C(F)(F)C(F)(F)F)S(=O)(=O)[O-])OCCC(F)(F)C(F)(F)C(F)(F)C(F)(F)F.[Na+] (stereo not drawn) [Example 45]	17.7
CC(C)(CNC(=O)CCNCCNCCC(=O)OCCC(F)(F)C(F)(F)C(F)(F)C(F)(F)C(F)(F)C(F)(F)C(F)(F)C(F)(F)F)CS(=O)(=O)[O-].[K+]	20.1
CCS(=O)(=O)[O-].CC[N+](C)(C)CCOC(=O)CCNCCNCCC(=O)OCCC(F)(F)C(F)(F)C(F)(F)C(F)(F)C(F)(F)C(F)(F)C(F)(F)C(F)(F)F	19.9

====

# protocol-description: Surface tension of the aqueous solution, Du Nouy tensiometer
# Type: physicochemical
# details: 100 ppm in water
Readings of SURFACE TENSION (dynes/cm) 100 ppm for the listed compounds
value-kind: SURFACE TENSION (dynes/cm) 100 ppm

CCS(=O)(=O)[O-].CC[N+](C)(C)CCOC(=O)CCNCCNCCC(=O)OCCC(F)(F)C(F)(F)C(F)(F)C(F)(F)C(F)(F)C(F)(F)C(F)(F)C(F)(F)F	21.3
O=C(CC(C(=O)OCCC(F)(F)C(F)(F)C(F)(F)C(F)(F)F)S(=O)(=O)[O-])OCCC(F)(F)C(F)(F)C(F)(F)C(F)(F)F.[Na+] (centres unmarked) [C14, reference compound]	30.5
O=C(CC(C(=O)OCCC(F)(F)C(F)(F)C(F)(F)C(F)(F)F)S(=O)(=O)[O-])OCCC(F)(F)C(F)(F)C(F)(F)C(F)(F)F.[Na+] (centres unmarked) [Example 45]	24.2
CC(C)(CNC(=O)CCSCCC(F)(F)C(F)(F)C(F)(F)C(F)(F)C(F)(F)C(F)(F)C(F)(F)C(F)(F)F)CS(=O)(=O)[O-].[K+]	24.0
CC(C)(CNC(=O)CCNCCNCCC(=O)OCCC(F)(F)C(F)(F)C(F)(F)C(F)(F)C(F)(F)C(F)(F)C(F)(F)C(F)(F)F)CS(=O)(=O)[O-].[K+]	26.2

====

# protocol-description: Surface tension of the aqueous solution, Du Nouy tensiometer
# Assay type: physicochemical
# details: 500 ppm in water
value-kind: SURFACE TENSION (dynes/cm) 500 ppm

CC(C)(CNC(=O)CCSCCC(F)(F)C(F)(F)C(F)(F)C(F)(F)C(F)(F)C(F)(F)C(F)(F)C(F)(F)F)CS(=O)(=O)[O-].[K+] [Example 47]	19.0
O=C(CC(C(=O)OCCC(F)(F)C(F)(F)C(F)(F)C(F)(F)F)S(=O)(=O)[O-])OCCC(F)(F)C(F)(F)C(F)(F)C(F)(F)F.[Na+] (stereo not drawn) [C14, reference compound]	21.7
CCCCCCCCCC(O)C/[N+](C)=C/CCCS(=O)(=O)[O-] (stereo not drawn) [Example 71]	17.5

This collection of values is drawn from patent US6365769B1.
